We begin with a simple list: items and their reported log10 of Ki.
target: Cathepsin K (Homo sapiens, UniProt P43235)
Sequence (P43235 whole entry): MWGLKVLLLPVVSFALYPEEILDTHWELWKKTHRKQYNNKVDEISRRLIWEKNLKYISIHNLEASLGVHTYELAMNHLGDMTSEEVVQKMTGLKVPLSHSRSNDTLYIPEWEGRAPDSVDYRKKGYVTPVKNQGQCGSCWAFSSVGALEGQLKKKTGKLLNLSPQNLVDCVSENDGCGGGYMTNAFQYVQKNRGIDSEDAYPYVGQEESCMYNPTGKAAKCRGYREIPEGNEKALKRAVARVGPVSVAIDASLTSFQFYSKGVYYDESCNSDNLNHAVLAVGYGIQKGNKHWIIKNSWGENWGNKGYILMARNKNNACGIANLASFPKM
Could you please treat all values as log10 of Ki in nM?

1. CC(C)C[C@H](NC(=O)OCc1ccccc1)C(=O)NNC(=O)NNC(=O)c1cccc(OCc2ccccc2)c1 | 1.43
2. CC(C)C[C@H](NC(=O)OCc1ccccc1)C(=O)NNC(=O)NNC(=O)[C@H](CC(C)C)NC(=O)OCc1ccccc1 | -0.15
3. CC(C)C[C@H](NC(=O)OCc1ccccc1)C(=O)NNC(=O)NNC(=O)[C@H](C)NC(=O)OCc1ccccc1 | 0.00
4. CC(C)C[C@H](NC(=O)OCc1ccccc1)C(=O)NNC(=O)NNC(=O)c1ccccc1 | 2.08

stdin: Return reported log10 of Ki for target or system Cathepsin K (Homo sapiens, UniProt P43235), item CC[C@H](NC(=O)OCc1ccccc1)C(=O)NNC(=O)NNC(=O)[C@H](CC(C)C)NC(=O)OCc1ccccc1 .
stdout: 0.53

The measurements presented in this section are drawn from ChEMBL document CHEMBL1131128.
